Tested on: U-251
Assay: Cytotoxicity against human U251MG cells assessed as reduction in cell viability after 72 hrs by CyQuant dye-based assay
Type: functional
Details: Homo sapiens, U-251, 72 h; read-out: IC50
Please assign Criterion not met whenever IC50 is at or above 4 µM, and Criterion met whenever it is below.

Answered examples (5):
- Compound: "C=C(C)C(CC=C(C)C)C[C@@]12C[C@@H](CC=C(C)C)C(C)(C)[C@@](CC=C(C)C)(C(=O)C(C(=O)c3cccc(O)c3)=C1O)C2=O (stereo partly specified)"
  Category: "Criterion met"
- Compound: "C=C(C)[C@H]1C[C@@]23C[C@@H](CC=C(C)C)C(C)(C)[C@@](CC=C(C)C)(C(=O)C(C(=O)c4ccc(O)c(O)c4)=C2O[C@@H]1C=C(C)C)C3=O"
  Category: "Criterion met"
- Compound: "C=C(C)CC[C@H]1C[C@]23C[C@H](CC=C(C)C)C(C)(C)[C@](CC=C(C)C)(C2=O)c2oc4cc(O)c(O)cc4c(=O)c2[C@]3(O)CC1=C"
  Category: "Criterion met"
- Compound: "CC(C)=CC[C@@H]1C[C@]23C[C@H](CC=C(C)C)C(C)(C)[C@](CC=C(C)C)(C(=O)C(C(=O)c4ccc(O)c(O)c4)=C2OC1(C)C)C3=O"
  Category: "Criterion not met"
- Compound: "CC(C)=CC[C@H]1C[C@@]23C[C@@H](CC=C(C)C)C(C)(C)[C@@](CC=C(C)C)(C(=O)C(C(=O)c4ccc(O)c(O)c4)=C2OC1(C)C)C3=O"
  Category: "Criterion met"

Input: Identify whether the compound CC(C)=CC[C@H]1C[C@]23C[C@@H]4CC=C(C)C[C@]4(C)C[C@@]2(O)c2c(oc4cc(O)c(O)cc4c2=O)[C@@](CC=C(C)C)(C3=O)C1(C)C records IC50 below 4 µM.
Output: Criterion met
